Experimental system: EPHB2 (UniProt P29323)
Sequence (P29323 whole entry, looked up): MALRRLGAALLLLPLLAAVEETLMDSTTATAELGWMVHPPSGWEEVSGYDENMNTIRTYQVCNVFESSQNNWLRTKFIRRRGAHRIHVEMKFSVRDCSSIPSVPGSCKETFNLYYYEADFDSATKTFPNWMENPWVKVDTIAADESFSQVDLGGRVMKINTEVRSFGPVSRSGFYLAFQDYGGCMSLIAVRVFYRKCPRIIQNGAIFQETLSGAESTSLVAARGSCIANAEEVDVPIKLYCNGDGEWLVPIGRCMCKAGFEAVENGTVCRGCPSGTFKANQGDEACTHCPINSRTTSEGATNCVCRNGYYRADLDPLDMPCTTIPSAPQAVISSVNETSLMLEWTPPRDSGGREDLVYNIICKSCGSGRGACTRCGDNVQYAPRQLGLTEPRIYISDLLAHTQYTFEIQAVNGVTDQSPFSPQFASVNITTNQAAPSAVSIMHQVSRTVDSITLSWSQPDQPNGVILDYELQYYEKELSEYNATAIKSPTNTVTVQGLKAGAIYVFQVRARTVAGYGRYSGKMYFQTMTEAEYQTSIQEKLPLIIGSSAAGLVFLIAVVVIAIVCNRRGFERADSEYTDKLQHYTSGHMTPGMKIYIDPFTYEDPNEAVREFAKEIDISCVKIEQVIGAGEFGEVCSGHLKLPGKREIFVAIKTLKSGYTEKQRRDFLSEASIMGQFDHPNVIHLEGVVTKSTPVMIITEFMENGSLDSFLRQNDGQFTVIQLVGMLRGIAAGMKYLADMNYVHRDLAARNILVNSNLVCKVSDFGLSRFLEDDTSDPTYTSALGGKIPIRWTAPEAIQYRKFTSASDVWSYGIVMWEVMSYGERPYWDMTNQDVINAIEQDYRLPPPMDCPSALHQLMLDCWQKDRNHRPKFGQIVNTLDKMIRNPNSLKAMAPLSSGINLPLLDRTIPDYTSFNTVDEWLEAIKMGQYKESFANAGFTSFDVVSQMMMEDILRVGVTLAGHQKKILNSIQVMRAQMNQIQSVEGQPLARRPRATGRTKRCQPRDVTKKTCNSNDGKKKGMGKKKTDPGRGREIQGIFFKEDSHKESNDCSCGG
Protocol description: phosphorylation enrichment, bacterial display (enrichment ratio); higher = better substrate or ligand; peptides without Tyr show the background;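 also: 11-residue human phosphosite peptides and single-mutation variants displayed on the E. coli surface, counted by deep sequencing, each peptide's frequency after selection divided by its frequency in the unselected input library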;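 also: frequency after pTyr selection over input frequency; kinase dosed for 20-30% of maximal phosphorylation in three min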
Reported endpoint: phosphorylation enrichment
Numbers only.

> print(dat)
                    sequence.text           reported.endpoint  endpoint.value
1        EITSHYRHLLR [ZBTB46_Y14]  phosphorylation enrichment           0.443
2    ILTLKYLIEHG [ACTG1_Y69_P70L]  phosphorylation enrichment           0.618
3  TNFCLYLRSLE [MTM1_Y71_R69C_YF]  phosphorylation enrichment           0.759
4    GNLLIYTDFGK [HGD_Y166_E168D]  phosphorylation enrichment            1.27
5         QNVADYMRYLM [RPL5_Y207]  phosphorylation enrichment            1.16

List phosphorylation enrichment for every entry below, keeping the order given.
1. APSGNYVACGG [GNB1_Y111]
2. QLDQHYLLVPE [DDX49_Y223_R222H]
3. GESVSYLFSHV [PRPS1_Y311]
4. YLRTGYSIPYG [TGM1_Y370_V372I]
5. FKIFRYTLNDN [FN1_Y1975_L1974R_YF]
6. IQTDGDRAPEA [UHMK1_Y197_Y197D]

Resp:
0.691
1.09
0.473
0.461
0.525
0.702

Record phosphorylation enrichment per entry; entries follow.
1. GFAIVYGTIIL [GPR179_Y460]
2. TFHNTYHSQMR [IL1RAPL1_Y615]
3. GPQSLYNGLVA [UCP2_Y79_R76Q]

Resp:
1. 0.592
2. 0.411
3. 0.551

* * *

Experimental system: FGFR3 (UniProt P22607)
Sequence (P22607 whole entry, looked up): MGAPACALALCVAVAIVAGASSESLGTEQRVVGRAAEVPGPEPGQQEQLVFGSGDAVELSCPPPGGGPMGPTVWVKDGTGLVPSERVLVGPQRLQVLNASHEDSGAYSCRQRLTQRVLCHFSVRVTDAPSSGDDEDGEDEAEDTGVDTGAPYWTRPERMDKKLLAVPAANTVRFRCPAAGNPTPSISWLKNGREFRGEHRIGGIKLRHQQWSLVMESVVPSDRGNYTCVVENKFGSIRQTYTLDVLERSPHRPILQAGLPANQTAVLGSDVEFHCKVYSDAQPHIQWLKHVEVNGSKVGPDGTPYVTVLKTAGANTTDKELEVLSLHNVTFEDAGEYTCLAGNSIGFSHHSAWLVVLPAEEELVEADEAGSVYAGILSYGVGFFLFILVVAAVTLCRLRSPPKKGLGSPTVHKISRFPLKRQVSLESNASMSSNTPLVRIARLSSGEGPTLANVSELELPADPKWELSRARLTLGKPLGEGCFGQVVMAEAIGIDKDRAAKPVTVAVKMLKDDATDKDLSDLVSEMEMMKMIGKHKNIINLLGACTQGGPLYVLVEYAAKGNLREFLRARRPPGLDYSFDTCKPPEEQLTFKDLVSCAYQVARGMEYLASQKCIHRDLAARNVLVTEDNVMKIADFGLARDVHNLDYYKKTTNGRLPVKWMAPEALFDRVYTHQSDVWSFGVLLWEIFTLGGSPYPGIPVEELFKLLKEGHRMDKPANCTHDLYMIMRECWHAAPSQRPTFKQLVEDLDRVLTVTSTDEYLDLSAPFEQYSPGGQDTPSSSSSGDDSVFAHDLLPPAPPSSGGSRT
Protocol description: phosphorylation enrichment, bacterial display (enrichment ratio); higher = better substrate or ligand; peptides without Tyr show the background
I'd be grateful if you could share measured phosphorylation enrichment for these entries.
Numbers only.

Example entries begin here.
> print(dat)
                   sequence.text  endpoint.value
1   NGSKGYAFVHF [PABPC5_Y147_YF]           0.611
2  VMIYAYLLHRG [PTEN_Y138_C136Y]           0.703
3  IGMSSYVMLAS [GGCX_Y301_F299S]            1.36

# batch size: 7; output phosphorylation enrichment per entry
1. HSLHDYKEALM [ADA2_Y337]
2. TIQDAYMHITS [ADCY10_Y318_A313T]
3. LAETSYVKVLE [MAGEA1_Y276]
4. GILDVYIFLGP [GAA_Y340]
5. GKSDPYHATTG [GJA1_Y247_S251T]
6. KNITEYCRHLI [RECQL_Y492_D495H]
7. TRGLEYIVPLM [CLCN4_Y548_G544R]

Resp:
[0.567, 0.43, 0.532, 1.02, 0.409, 0.533, 1.04]

For each of the items listed, what is its phosphorylation enrichment?
1. YDGKDYIALKE [HLA-A_Y147_N151K]
2. FKDGQYWIRGR [ACSF3_Y466]
3. ACEVLYNIAFM [NCF2_Y125]
4. SGGSSYGSGGG [KRT1_Y532]
5. CEHFSYFGMKA [SLC15A2_Y60_R57H_YF]
6. RLLVVYPWTER [HBB_Y36_Q40E]

Resp:
1: 0.739; 2: 0.482; 3: 1.49; 4: 0.389; 5: 0.902; 6: 0.58

Parameters: items (list). Returns: phosphorylation enrichment for each item.
1. APTSGYQEFVH [IL4R_Y575]
2. VFLGAYDRFLP [SLC22A5_Y486_YF]
3. DFTEAYNSKIK [CLK1_Y305_P307S_YF]

Resp:
1: 0.51; 2: 0.656; 3: 0.65

Batch of 6 sequences: report phosphorylation enrichment for each.
1. FKDGQYWIRGW [ACSF3_Y466_R471W]
2. IHETTYNSIMK [ACTA1_Y281]
3. FGLDRYQCDCT [PTGS1_Y54]
4. FLKDVYVDSKD [NDUFAF4_Y69]
5. AEPNIYQEKLS [USP54_Y1233_D1231N]
6. KMKGDYFRFLA [YWHAG_Y130_YF]

Resp:
1. 0.551
2. 0.436
3. 0.861
4. 0.731
5. 0.505
6. 3.83

// provenance: the supplement of paper PMC10065799
